Entries annotated with measured GI50
system: HOP-62; test: NCI tumour cell line growth inhibition, 48 h
Activity calls are given as the source filed them. Cut-off read from the data, not from the text of the source: active = GI50 up to about 1.1 µM and inactive = higher.

- COMPOUND: "COc1cc(N2C(=O)C(=O)C3(CCCCC3)C2=O)cc(OC)c1OC"
  GI50: "57.5 µM (inactive)"
- COMPOUND: "O=C1OC(CC(=O)c2ccc(Cl)c(Cl)c2)C(Cl)=C1Cl (stereo unspecified)"
  GI50: "> 100 µM (inactive)"
- COMPOUND: "Cc1ccc(-n2cc(-c3ccc(Cl)cc3)c3c(N/N=C4\\SCC(=O)N4C)ncnc32)cc1"
  GI50: "9.14 µM (inactive)"
- COMPOUND: "CCCCCCCCCCCCCCCCC1=CC(=O)C=C(OC)C1=O"
  GI50: "> 100 µM (inactive)"
- COMPOUND: "Cc1ccc(-c2nc3c(C(=O)NCCN(C)C)cccc3[nH]2)cc1"
  GI50: "15.9 µM (inactive)"
- COMPOUND: "COC(=O)/C=C\\[C@H]1[C@H](C)N1S(=O)(=O)c1ccc(C)cc1 (stereo partly specified)"
  GI50: "> 100 µM (inactive)"
- COMPOUND: "OCCCCCNc1c2ccccc2nc2ccccc12"
  GI50: "1.38 µM (inactive)"
- COMPOUND: "CCOC1=C2C(=O)OC(=O)C2C2CCCCC2=C1 (stereo unspecified)"
  GI50: "> 100 µM (inactive)"
- COMPOUND: "CCN(CC)CCCC(C)Nc1c2cc(OC)cc(C)c2nc2c(C)c(Cl)ccc12 (stereo unspecified)"
  GI50: "1.66 µM (inactive)"
- COMPOUND: "CC1=C(c2cc(C(=O)Nc3ccc(Cl)c(Cl)c3)nc(N)n2)Sc2ccccc2N1"
  GI50: "> 100 µM (inactive)"
- COMPOUND: "COc1ccccc1NC1Oc2cc3c(cc2C(c2cc(OC)c(OC)c(OC)c2)C1C)OCO3 (stereo unspecified)"
  GI50: "5.26 µM (inactive)"
